# Tested on: CCRF-CEM leukemia
# test.name: NCI tumour cell line growth inhibition, 48 h
metric: TGI (µM)

>>> print(df.to_string())
                                   molecule        system_name  result_modifier  value
0  O=C1C=CC(CC(=O)c2ccc3ccccc3c2)O1 (stereo unspecified)  CCRF-CEM leukemia                =   63.4
1               CNCCC=C1c2ccccc2CCc2ccccc21  CCRF-CEM leukemia                =   29.3
2  Cc1ccc(NC(=O)C(=O)Cc2cc[n+]([O-])cc2)cc1  CCRF-CEM leukemia                >    100
3           COC(=O)c1ccc(NCc2cc(O)ccc2O)cc1  CCRF-CEM leukemia                =   10.8
4  CC(CCCOC(c1ccccc1)(c1ccccc1)c1ccccc1)OC(=O)Nc1ccccc1 (stereo unspecified)  CCRF-CEM leukemia                =   33.1
5  CCC(Oc1ccc(OC)c2ccccc(=O)c12)C(=O)O (stereo unspecified)  CCRF-CEM leukemia                >    100

The reported measurements were obtained from PubChem BioAssay (NCI).
